- Tested on: CW2 cell line
- ASSAY METHOD TEXT: Growth inhibition, CyQUANT Direct Cell Proliferation Assay, CW2
- Type: cell-based
- MEASUREMENT PARAMETERS: Homo sapiens, CW-2; CW2, 120 to 168 hours; read-out: CW2 GI50
VALUE KIND: GI50

Record excerpt, results attached:
* COC[C@@H]1Cc2ccccc2N1C(=O)Nc1ccc2c(c1)CN(C1CCC(=O)NC1=O)C2=O (stereo in doubt) [Compound 337] | 100 to 1000 nM
* CC1CN(C(=O)Nc2ccc3c(c2)CN(C2CCC(=O)NC2=O)C3=O)c2ccccc21 (stereo in doubt) [Compound 283] | 100 to 1000 nM
* CC1(c2ccc3c(c2)CCN3C(=O)Nc2ccc3c(c2)CN(C2CCC(=O)NC2=O)C3=O)CC1 (stereo not shown) [Compound 344] | < 100 nM

Moving on to another compound below.
Req: GI50 for COC[C@@H]1Cc2ccccc2N1C(=O)Nc1ccc2c(c1)CN(C1CCC(=O)NC1=O)C2=O (stereo partly shown) [Compound 288] ?
Resp: < 100 nM

---

This listing pairs molecules with measured DC50.
- SYSTEM UNDER TEST: CK1α (Homo sapiens)
- Construct: HEK293 clonal lines with CRISPR KI HiBiT tag on CSNK1A1
- Sequence (P48729 whole entry): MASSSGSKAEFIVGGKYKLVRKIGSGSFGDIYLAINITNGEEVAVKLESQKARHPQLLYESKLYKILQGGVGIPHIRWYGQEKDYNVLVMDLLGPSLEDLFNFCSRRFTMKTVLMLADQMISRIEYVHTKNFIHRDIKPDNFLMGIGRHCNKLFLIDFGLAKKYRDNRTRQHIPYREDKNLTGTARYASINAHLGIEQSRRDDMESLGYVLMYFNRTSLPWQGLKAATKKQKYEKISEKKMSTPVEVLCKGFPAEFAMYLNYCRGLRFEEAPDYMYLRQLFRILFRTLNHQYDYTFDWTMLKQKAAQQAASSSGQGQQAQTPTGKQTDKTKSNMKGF
- Sequence (Q96SW2 whole entry, further chain): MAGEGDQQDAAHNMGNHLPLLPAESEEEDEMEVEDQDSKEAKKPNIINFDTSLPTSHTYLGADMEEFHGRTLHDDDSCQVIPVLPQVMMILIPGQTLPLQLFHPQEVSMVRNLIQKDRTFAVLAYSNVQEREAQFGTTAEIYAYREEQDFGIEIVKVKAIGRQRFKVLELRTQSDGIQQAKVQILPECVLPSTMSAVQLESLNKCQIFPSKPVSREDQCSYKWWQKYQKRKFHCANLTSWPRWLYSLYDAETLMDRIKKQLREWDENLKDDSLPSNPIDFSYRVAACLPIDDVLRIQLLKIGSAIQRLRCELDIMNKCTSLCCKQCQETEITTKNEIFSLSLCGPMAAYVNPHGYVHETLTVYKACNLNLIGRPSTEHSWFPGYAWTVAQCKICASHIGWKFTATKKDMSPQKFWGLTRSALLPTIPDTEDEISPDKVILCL
- Sequence (Q16531 2-1140 partner limits assumed): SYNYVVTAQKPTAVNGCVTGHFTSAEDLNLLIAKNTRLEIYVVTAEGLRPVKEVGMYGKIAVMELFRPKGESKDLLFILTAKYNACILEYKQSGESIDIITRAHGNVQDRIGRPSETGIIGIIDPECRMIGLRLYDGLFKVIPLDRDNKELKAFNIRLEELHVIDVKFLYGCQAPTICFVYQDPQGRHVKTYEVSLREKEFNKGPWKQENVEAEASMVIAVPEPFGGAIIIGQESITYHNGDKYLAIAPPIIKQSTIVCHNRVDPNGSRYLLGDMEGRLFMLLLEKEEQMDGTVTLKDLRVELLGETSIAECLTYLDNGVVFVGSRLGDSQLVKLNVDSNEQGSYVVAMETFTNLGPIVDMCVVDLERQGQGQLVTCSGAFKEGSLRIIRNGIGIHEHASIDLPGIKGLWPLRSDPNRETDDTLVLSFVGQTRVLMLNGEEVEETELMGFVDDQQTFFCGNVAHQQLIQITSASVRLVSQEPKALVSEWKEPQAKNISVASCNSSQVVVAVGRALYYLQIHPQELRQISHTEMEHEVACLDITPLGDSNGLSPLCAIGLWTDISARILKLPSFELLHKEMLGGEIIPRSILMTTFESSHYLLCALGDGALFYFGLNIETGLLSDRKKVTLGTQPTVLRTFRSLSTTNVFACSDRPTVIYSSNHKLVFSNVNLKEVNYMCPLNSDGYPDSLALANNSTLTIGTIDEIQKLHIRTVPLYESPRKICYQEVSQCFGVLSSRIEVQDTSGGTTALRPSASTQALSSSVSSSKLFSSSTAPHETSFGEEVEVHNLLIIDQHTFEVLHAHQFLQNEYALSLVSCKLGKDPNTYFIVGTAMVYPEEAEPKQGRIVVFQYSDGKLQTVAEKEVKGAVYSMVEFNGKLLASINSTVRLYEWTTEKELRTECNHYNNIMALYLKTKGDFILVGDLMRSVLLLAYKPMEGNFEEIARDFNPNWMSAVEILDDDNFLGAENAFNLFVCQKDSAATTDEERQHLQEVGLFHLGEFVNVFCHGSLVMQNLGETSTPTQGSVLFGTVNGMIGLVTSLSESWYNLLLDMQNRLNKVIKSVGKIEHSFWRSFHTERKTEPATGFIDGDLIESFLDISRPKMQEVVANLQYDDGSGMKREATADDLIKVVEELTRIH
- ASSAY METHOD TEXT: CK1α NanoBit Assay (HiBiT-tagged CSNK1A1, HEK293 clonal lines)
- Type: cell-based
- MEASUREMENT PARAMETERS: HEK293 HiBiT-CSNK1A1/LgBiT cells, 24 h incubation

Examples with their reported DC50 follow.
* O=C1CCC(N2Cc3cc(NC(=O)N4CCc5ccccc5C4C(F)(F)F)ccc3C2=O)C(=O)N1 (centres unmarked) [Compound 130] | < 0.1 µM
* COCC1c2ccc(C)cc2CN1C(=O)Nc1ccc2c(c1)CN(C1CCC(=O)NC1=O)C2=O (centres unmarked) [Compound 331] | < 0.1 µM
* O=C1CCC(N2Cc3cc(NC(=O)N4CCC5(CC5)C4)ccc3C2=O)C(=O)N1 (centres unmarked) [Compound 274] | 0.1 to 1 µM
* O=C1CCC(N2Cc3cc(NC(=O)N4CCC(O)CC4)ccc3C2=O)C(=O)N1 (centres unmarked) [Compound 251] | > 1 µM
* O=C1CCC(N2Cc3cc(NC(=O)N4CCCC4c4ccccc4)ccc3C2=O)C(=O)N1 (centres unmarked) [Compound 264] | < 0.1 µM
* O=C1CCC(N2Cc3cc(NC(=O)N4CCc5c(C6COC6)cccc54)ccc3C2=O)C(=O)N1 (centres unmarked) [Compound 342] | < 0.1 µM
* COC[C@@H]1Cc2ccccc2N1C(=O)Nc1ccc2c(c1)CN(C1CCC(=O)NC1=O)C2=O (stereo in doubt) [Compound 334] | < 0.1 µM

Would you kindly look at the next entry?
Req: Lab note: need DC50 with CK1α (Homo sapiens) for entry COC[C@@H]1Cc2ccccc2N1C(=O)Nc1ccc2c(c1)CN(C1CCC(=O)NC1=O)C2=O (some centres unmarked) [Compound 288] , please look it up.
Resp: < 0.1 µM

---

Entries annotated with measured GI50
- Tested on: CW2 cell line
- ASSAY METHOD TEXT: Growth inhibition, CyQUANT Direct Cell Proliferation Assay, CW2
- Format: cell-based
- MEASUREMENT PARAMETERS: Homo sapiens, CW-2; CW2, 120 to 168 hours; read-out: CW2 GI50

- C[C@H]1CN(C(=O)Nc2ccc3c(c2)CN(C2CCC(=O)NC2=O)C3=O)c2ccccc21 (some centres unmarked) [Compound 284]: < 100 nM
- COC[C@@H]1Cc2ccccc2N1C(=O)Nc1ccc2c(c1)CN(C1CCC(=O)NC1=O)C2=O (stereo in doubt) [Compound 334]: 100 to 1000 nM
- C[C@H]1Cc2ccccc2N1C(=O)Nc1ccc2c(c1)CN(C1CCC(=O)NC1=O)C2=O (some centres unmarked) [Compound 101]: < 100 nM
- COC[C@@H]1Cc2c(C3CC3)cccc2N1C(=O)Nc1ccc2c(c1)CN(C1CCC(=O)NC1=O)C2=O (some centres unmarked) [Compound 339]: 100 to 1000 nM

Req: Any idea what GI50 was measured for O=C1CCC(N2Cc3cc(NC(=O)N4CCc5c4cccc5-n4cccn4)ccc3C2=O)C(=O)N1 (centres unmarked) [Compound 340] ?
Resp: 100 to 1000 nM

Req: Quick one: GI50 of O=C1CCC(N2Cc3cc(NC(=O)N4CCc5c(F)cccc54)ccc3C2=O)C(=O)N1 (centres unmarked) [Compound 201] ?
Resp: < 100 nM

Req: Look at this compound and give its reported GI50. O=C1CCC(N2Cc3cc(NC(=O)N4C[C@H](C5CC5)C[C@@H]4C4CC4)ccc3C2=O)C(=O)N1 (some centres unmarked) [Compound 256]
Resp: < 100 nM

Req: Requested field: GI50. Item: Cc1cccc2c1CCN2C(=O)Nc1ccc2c(c1)CN(C1CCC(=O)NC1=O)C2=O (centres unmarked) [Compound 198]
Resp: < 100 nM

The measurements presented in this section are drawn from patent US20250171420A1.
